Reference source: patent US20040014624A1

# protocol description: Surfactant Log P estimate by reversed phase HPLC
measure: chromatographic logP
// response body must contain only the number

Input: Quick one: chromatographic logP of CCCCCCCCCCCC[N+](C)(C)[O-] [Barlox ® 12, dodecyl dimethyl amine oxide] ?
Output: 4.5
